Target: XRCC6 X-ray repair cross-complementing protein 6 (Homo sapiens, UniProt P12956)
Construct: isoTOP-ABPP experiments performed in cell lysates (in vitro); endogenous in cells; host or cells: soluble proteome of human cancer cell lines (MDA-MB-231; Ramos and Jurkat also prepared)
Sequence (P12956 2-609 limits assumed): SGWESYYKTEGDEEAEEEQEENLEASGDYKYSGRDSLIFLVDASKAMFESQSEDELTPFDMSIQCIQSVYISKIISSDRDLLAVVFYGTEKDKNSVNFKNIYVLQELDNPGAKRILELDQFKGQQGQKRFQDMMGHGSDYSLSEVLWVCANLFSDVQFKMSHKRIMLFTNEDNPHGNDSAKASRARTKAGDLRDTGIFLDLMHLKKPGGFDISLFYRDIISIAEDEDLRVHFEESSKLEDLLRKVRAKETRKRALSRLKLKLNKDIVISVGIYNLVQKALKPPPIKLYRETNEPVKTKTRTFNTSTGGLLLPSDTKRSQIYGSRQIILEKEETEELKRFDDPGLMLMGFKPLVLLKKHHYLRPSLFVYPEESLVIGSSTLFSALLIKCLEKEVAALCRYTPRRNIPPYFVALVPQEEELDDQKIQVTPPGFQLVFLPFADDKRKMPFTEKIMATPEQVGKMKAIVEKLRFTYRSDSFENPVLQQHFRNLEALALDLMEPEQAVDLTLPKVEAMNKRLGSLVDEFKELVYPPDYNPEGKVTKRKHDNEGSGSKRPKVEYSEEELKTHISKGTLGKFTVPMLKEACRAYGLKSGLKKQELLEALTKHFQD
Sequence (P13010 2-732 partner limits assumed): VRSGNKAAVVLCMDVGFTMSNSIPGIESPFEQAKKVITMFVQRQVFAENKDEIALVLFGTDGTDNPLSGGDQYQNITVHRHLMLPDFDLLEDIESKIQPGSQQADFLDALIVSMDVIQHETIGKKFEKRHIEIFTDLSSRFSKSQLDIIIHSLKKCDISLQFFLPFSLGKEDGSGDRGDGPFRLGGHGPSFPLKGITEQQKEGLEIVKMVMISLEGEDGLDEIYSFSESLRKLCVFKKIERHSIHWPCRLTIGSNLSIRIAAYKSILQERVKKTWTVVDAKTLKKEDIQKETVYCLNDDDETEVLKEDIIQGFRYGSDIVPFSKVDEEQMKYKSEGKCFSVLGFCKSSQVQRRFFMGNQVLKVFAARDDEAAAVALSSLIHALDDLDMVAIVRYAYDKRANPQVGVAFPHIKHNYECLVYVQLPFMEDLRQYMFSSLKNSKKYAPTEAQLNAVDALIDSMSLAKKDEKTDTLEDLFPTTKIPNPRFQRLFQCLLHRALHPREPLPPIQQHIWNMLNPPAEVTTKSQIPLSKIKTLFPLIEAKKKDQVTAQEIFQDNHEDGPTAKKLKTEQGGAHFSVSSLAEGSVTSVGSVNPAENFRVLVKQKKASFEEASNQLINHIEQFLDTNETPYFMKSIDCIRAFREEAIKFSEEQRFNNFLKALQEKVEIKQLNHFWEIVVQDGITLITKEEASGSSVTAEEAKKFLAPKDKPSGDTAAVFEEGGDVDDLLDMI
Test: competitive isoTOP-ABPP
Type: binding
Conditions: P12956_K351; 50 uM, 231 sol, in vitro
Description: In vitro covalent fragment treatment for isoTOP-ABPP. All compounds were made up as solutions in DMSO (100×) and were used at a final concentration of 50 μM for activated esters and 100 μM for guanidinylating agents. […] R value calculation and processing. The ratios of light and heavy MS1 peaks for each unique peptide were quantified with a CIMAGE software using default parameters (3 MS1 acquisitions per peak and signal to noise threshold set to 2.5). […]
Measured R value (DMSO/fragment) for probe 1 labeling by item
Keep the answer to the number alone.

[
  {
    "molecule": "O=C(Oc1c(F)c(F)c(F)c(F)c1F)c1cc(C(F)(F)F)cc(C(F)(F)F)c1",
    "target.under.test": "XRCC6 X-ray repair cross-complementing protein 6 (Homo sapiens, UniProt P12956)",
    "test.result": 1.4
  },
  {
    "molecule": "COc1cc(CCC(=O)Oc2c(F)c(F)c(F)c(F)c2F)cc(OC)c1OC",
    "target.under.test": "XRCC6 X-ray repair cross-complementing protein 6 (Homo sapiens, UniProt P12956)",
    "test.result": 1.2
  },
  {
    "molecule": "O=C(Oc1c(F)c(F)c(F)c(F)c1F)C(c1ccccc1)c1ccccc1 [fragment 20, Pentafluorophenyl 2,2-diphenylacetate]",
    "target.under.test": "XRCC6 X-ray repair cross-complementing protein 6 (Homo sapiens, UniProt P12956)",
    "test.result": 2.3
  },
  {
    "molecule": "O=C(CCc1cn(-c2ccccc2)nc1-c1ccccc1)Oc1c(F)c(F)c(F)c(F)c1F",
    "target.under.test": "XRCC6 X-ray repair cross-complementing protein 6 (Homo sapiens, UniProt P12956)",
    "test.result": 1.7
  }
]

Lab note: next molecule to report on.
q: Fetch value of R value (DMSO/fragment) for probe 1 labeling on XRCC6 X-ray repair cross-complementing protein 6 (Homo sapiens, UniProt P12956) for Cn1cc(CC(=O)Oc2c(F)c(F)c(F)c(F)c2F)c2ccccc21 .
a: 3.6

// data source = patent US20210255193A1
